Test: Pharmacokinetics and brain uptake after i.v. and i.g. administration
Format: in vivo, male Wistar rats
Settings: male, Wistar, po; rat, i.g. 2 mg/kg, plasma
Can you tell me Cmax for the items I'm about to list?
Your answer should be a plain number; it is taken to be in ng/mL.

q: Answer with reported Cmax of COc1cccc(N2CCN(CC3CCN(c4ncnc5cc(OC)c(OC)cc45)C3)CC2)c1 (centres unmarked)
a: 46.7

q: Answer with reported Cmax of COc1cc2ncnc(N3CCC(CN4CCN(c5ccc(Cl)cc5)CC4)C3)c2cc1OC (centres unmarked)
a: 99.5

###

Can you tell me C0 for the items I'm about to list?
Assay: Pharmacokinetics and brain uptake after i.v. and i.g. administration
Format: in vivo, male Wistar rats
Details: male, Wistar, iv; rat, i.v. 0.5 mg/kg, plasma
Give your result as the value with the unit written after it.

q: Answer with reported C0 of COc1cc2ncnc(N3CCC(CN4CCN(c5ccc(Cl)cc5)CC4)C3)c2cc1OC (centres unmarked)
a: 102 ng/mL

q: Answer with reported C0 of COc1cccc(N2CCN(CC3CCN(c4ncnc5cc(OC)c(OC)cc45)C3)CC2)c1 (centres unmarked)
a: 431 ng/mL

###

Test: Pharmacokinetics and brain uptake after i.v. and i.g. administration
Assay type: in vivo, male Wistar rats
Details: male, Wistar, rat, plasma, iv, 0.5 mg/kg, i.v. 0.5 mg/kg, plasma, read-out: Vss
propertyLabel: Vd (L/kg)
Your answer should be a plain number; it is taken to be in L/kg.

q: Answer with reported Vd of COc1cccc(N2CCN(CC3CCN(c4ncnc5cc(OC)c(OC)cc45)C3)CC2)c1 (centres unmarked) [PQA-AZ4]
a: 0.8

###

Can you tell me half-life for the items I'm about to list?
Test: Pharmacokinetics and brain uptake after i.v. and i.g. administration
Format: in vivo, male Wistar rats
Conditions: male, Wistar, in vivo; rat, elimination from body, route not stated

q: Answer with reported half-life of COc1cccc(N2CCN(CC3CCN(c4ncnc5cc(OC)c(OC)cc45)C3)CC2)c1 (centres unmarked) [PQA-AZ4]
a: ~60 min

q: Answer with reported half-life of COc1cc2ncnc(N3CCC(CN4CCN(c5ccc(Cl)cc5)CC4)C3)c2cc1OC (centres unmarked) [PQA-AZ6]
a: ~60 min

###

Experiment: Pharmacokinetics and brain uptake after i.v. and i.g. administration
Format: in vivo, male Wistar rats
Settings: male, Wistar, iv; rat, i.v. 0.5 mg/kg, plasma
Method: […] Pharmacokinetic parameters were calculated by a noncompartmental approach from the average concentration values, using Phoenix WinNonlin software (Certara, Princeton, NJ 08540 USA). The first-order elimination rate constant (λz) was calculated by linear regression of log concentration versus time. […] Mean residence time (MRT) was calculated as:(3) MRT=AUMC0→t/AUC0→t Systemic clearance (Cl) was calculated as:(4) Cl=Div/AUC0→t […]
propertyLabel: MRT
Give your result as the value with the unit written after it.

q: Answer with reported MRT of COc1cc2ncnc(N3CCC(CN4CCN(c5ccc(Cl)cc5)CC4)C3)c2cc1OC (centres unmarked) [PQA-AZ6]
a: 44.5 min

q: Answer with reported MRT of COc1cccc(N2CCN(CC3CCN(c4ncnc5cc(OC)c(OC)cc45)C3)CC2)c1 (centres unmarked) [PQA-AZ4]
a: 57.5 min
